- System: 883617-216-R-J1-PDC complex spheroids, growth, % test/control;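 further: exposure lasted 7 days after dosing on day 3 of spheroid growth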
- Assay Remarks: Anticancer human tumor 883617-216-R-J1-PDC patient-derived bladder carcinoma cell line growth inhibition [AhR]
- Setup Conditions: curve of first compound; second compound 0.1 µM
pIC50: −log10 of the molar value.
Measured Endpoint: pIC50

Consider the worked cases shown below.
INSERT INTO measurements (compound, system_under_test, value_reported) VALUES
  ('COc1ccc([C@@H](O)c2cc(-c3ncnc4cc(N5CCOCC5)ccc34)c(F)cc2Cl)nn1 + Cc1cncc(-c2nc(NCCc3c[nH]c4ccccc34)c3ncn(C(C)C)c3n2)c1', '883617-216-R-J1-PDC complex spheroids, growth, % test/control', 5.58),
  ('Nc1ncn(C2CC(O)C(CO)S2)c(=O)n1 (stereo unspecified) + Cc1cncc(-c2nc(NCCc3c[nH]c4ccccc34)c3ncn(C(C)C)c3n2)c1', '883617-216-R-J1-PDC complex spheroids, growth, % test/control', '< 6.52'),
  ('Nc1ccn(C2OC(CO)C(O)C2(F)F)c(=O)n1 (stereo unspecified) + CC(CO)NC(=O)c1cc(-c2ccc(Cl)cc2)nn(-c2cnn(C)c2)c1=O', '883617-216-R-J1-PDC complex spheroids, growth, % test/control', '< 5.00');

input: Supply measured pIC50 of CC[C@@]1(O)C(=O)OCc2c1cc1n(c2=O)Cc2cc3c(CN(C)C)c(O)ccc3nc2-1 + CC(CO)NC(=O)c1cc(-c2ccc(Cl)cc2)nn(-c2cnn(C)c2)c1=O in your reply.
output: < 7.00

input: Supply measured pIC50 of CC1COCCN1c1cc(C2(S(C)(=N)=O)CC2)nc(-c2ccnc3[nH]ccc23)n1 (stereo unspecified) + Cc1ccccc1N=Nc1ccc(NC(=O)c2ccnn2C)c(C)c1 in your reply.
output: < 5.00

input: Supply measured pIC50 of CC(C)c1c(-c2ccccc2)nc2c(C#N)c[nH]n2c1=O + Cc1ccccc1N=Nc1ccc(NC(=O)c2ccnn2C)c(C)c1 in your reply.
output: < 5.00

From: PubChem BioAssay AID1919004
